I'd appreciate it if you could supply TERMINAL_BW values for the items below.
# Organism: Rattus norvegicus
# TEST_DETAILS: Open TG-GATES - Regimen: Daily Repeat
# Assay type: toxicity, organism-based, Sprague-Dawley
# Parameters: regimen Daily Repeat, gender Male, age 6 weeks
# RUN_PARAMETERS: in vivo, po, 0 mg/kg, […], route gavage, dose level Control, time 14 day
Give bare numbers, in g.

Some solved entries appear below for comparison.
{"COMPOUND": "CC(C)(S)[C@@H](N)C(=O)O [PENICILLAMINE]", "TERMINAL_BW (g)": 335.9}
{"COMPOUND": "O=C(N[C@H](CO)[C@H](O)c1ccc([N+](=O)[O-])cc1)C(Cl)Cl [CHLORAMPHENICOL]", "TERMINAL_BW (g)": 334.8}

Dear colleague, could you please provide TERMINAL_BW for the compounds listed below?
1. Oc1ncnc2[nH]ncc12 [ALLOPURINOL]
2. CN1C(=O)OC(C)(C)C1=O [TRIMETHADIONE]
3. CC(=N)S [THIOACETAMIDE]

[318.9, 333.6, 312.2]

Dear colleague, could you please provide TERMINAL_BW for the compounds listed below?
1. CCN1CCCC1CNC(=O)c1cc(S(N)(=O)=O)ccc1OC (stereo unspecified) [SULPIRIDE]
2. C[C@](N)(Cc1ccc(O)c(O)c1)C(=O)O [METHYLDOPA]
3. CC(=O)Oc1cc(C(C)C)c(OCCN(C)C)cc1C [MOXISYLYTE]

1. 315.8
2. 288.8
3. 305.9

----------
# Species: Rattus norvegicus
# TEST_DETAILS: Open TG-GATES - Regimen: Single
# Type: toxicity, organism-based, Sprague-Dawley
# Set-up: regimen Single, gender Male, age 6 weeks
# RUN_PARAMETERS: in vivo, po, 0 mg/kg, 3 h, tissue Kidney, route gavage, dose level Control
OUTCOME_MEASURE: KIDNEY_TOTAL (g)
Answers are plain numbers, in g.

Some solved entries appear below for comparison.
{"COMPOUND": "CN1C(=O)OC(C)(C)C1=O [TRIMETHADIONE]", "OUTCOME_MEASURE": "KIDNEY_TOTAL", "MEASURED_VALUE": 1.9}
{"COMPOUND": "CCSCC[C@H](N)C(=O)O [ETHIONINE]", "OUTCOME_MEASURE": "KIDNEY_TOTAL", "MEASURED_VALUE": 1.9}
{"COMPOUND": "C[C@]12CCC(=O)C=C1CC[C@@H]1[C@@H]2CC[C@@]2(C)[C@H]1CC[C@]2(C)O [METHYLTESTOSTERONE]", "OUTCOME_MEASURE": "KIDNEY_TOTAL", "MEASURED_VALUE": 1.8}
{"COMPOUND": "CCN1CCCC1CNC(=O)c1cc(S(N)(=O)=O)ccc1OC (stereo not given) [SULPIRIDE]", "OUTCOME_MEASURE": "KIDNEY_TOTAL", "MEASURED_VALUE": 1.9}

Dear colleague, could you please provide KIDNEY_TOTAL for the compounds listed below?
1. CC(C)C(=O)Nc1ccc([N+](=O)[O-])c(C(F)(F)F)c1 [FLUTAMIDE]
2. Nc1nc(N)c2nc(-c3ccccc3)c(N)nc2n1
3. CC(C)(S)[C@@H](N)C(=O)O [PENICILLAMINE]

1. 1.9
2. 1.9
3. 1.7

Dear colleague, could you please provide KIDNEY_TOTAL for the compounds listed below?
1. CCC(C)(C)C(=O)O[C@H]1C[C@@H](C)C=C2C=C[C@H](C)[C@H](CC[C@@H]3C[C@@H](O)CC(=O)O3)[C@H]21 [SIMVASTATIN]
2. C[C@](N)(Cc1ccc(O)c(O)c1)C(=O)O [METHYLDOPA]
3. CCc1oc2ccccc2c1C(=O)c1cc(I)c(O)c(I)c1 [BENZIODARONE]
4. C#C[C@]1(O)CC[C@H]2[C@@H]3CCc4cc(O)ccc4[C@H]3CC[C@@]21C [ETHINYL ESTRADIOL]
5. O=C(N[C@H](CO)[C@H](O)c1ccc([N+](=O)[O-])cc1)C(Cl)Cl [CHLORAMPHENICOL]
6. Oc1ncnc2[nH]ncc12 [ALLOPURINOL]
7. CC(=N)S [THIOACETAMIDE]

1: 1.9; 2: 1.6; 3: 2; 4: 1.7; 5: 1.8; 6: 1.9; 7: 1.7

Using the record for CC(=O)Oc1cc(C(C)C)c(OCCN(C)C)cc1C [MOXISYLYTE] , state its measured KIDNEY_TOTAL.
1.9

----------
# Species: Rattus norvegicus
# TEST_DETAILS: Open TG-GATES - Regimen: Daily Repeat
# Type: toxicity, organism-based, Sprague-Dawley
# Set-up: regimen Daily Repeat, gender Male, age 6 weeks
# RUN_PARAMETERS: in vivo, po, 100 mg/kg, […], tissue Blood, route gavage, dose level Low, time 28 day
I'd appreciate it if you could supply Ht values for the items below.
Answers are plain numbers, in %.

{"COMPOUND": "CC(C)(S)[C@@H](N)C(=O)O", "OUTCOME_MEASURE": "Ht", "MEASURED_VALUE": 46.8}
{"COMPOUND": "O=C(O)c1cccnc1", "OUTCOME_MEASURE": "Ht", "MEASURED_VALUE": 43.1}
{"COMPOUND": "O=C(N[C@H](CO)[C@H](O)c1ccc([N+](=O)[O-])cc1)C(Cl)Cl", "OUTCOME_MEASURE": "Ht", "MEASURED_VALUE": 43.7}

Using the record for CCN1CCCC1CNC(=O)c1cc(S(N)(=O)=O)ccc1OC (centres undefined) [SULPIRIDE] , state its measured Ht.
46.9

----------
I'd appreciate it if you could supply MCHC values for the items below.
# Species: Rattus norvegicus
# TEST_DETAILS: Open TG-GATES - Regimen: Daily Repeat
# Type: toxicity, organism-based, Sprague-Dawley
# Set-up: regimen Daily Repeat, gender Male, age 6 weeks
# RUN_PARAMETERS: in vivo, po, 300 mg/kg, 72 h, tissue Blood, route gavage, dose level Middle, time 3 day

{"MOLECULE": "CCN1CCCC1CNC(=O)c1cc(S(N)(=O)=O)ccc1OC (centres undefined) [SULPIRIDE]", "MCHC": "32.8%"}
{"MOLECULE": "O=C(O)c1cccnc1 [NIACIN]", "MCHC": "33%"}
{"MOLECULE": "CC(C)(S)[C@@H](N)C(=O)O [PENICILLAMINE]", "MCHC": "32.6%"}

Here's the next entry for you.
Using the record for O=C(N[C@H](CO)[C@H](O)c1ccc([N+](=O)[O-])cc1)C(Cl)Cl [CHLORAMPHENICOL] , state its measured MCHC.
32.6%

----------
# Organism: Rattus norvegicus
# TEST_DETAILS: Open TG-GATES - Regimen: Daily Repeat
# Format: toxicity, organism-based, Sprague-Dawley
# Set-up: regimen Daily Repeat, gender Male, age 6 weeks
# RUN_PARAMETERS: in vivo, po, 0 mg/kg, 72 h, tissue Plasma, route gavage, dose level Control, time 3 day
I'd appreciate it if you marked entries Fulfilled when DBIL is lower than 0.01 mg/dL and Not fulfilled when it is not.

Record excerpt, results attached:
{"MOLECULE": "CN1C(=O)OC(C)(C)C1=O [TRIMETHADIONE]", "LABEL": "Fulfilled"}
{"MOLECULE": "C#C[C@]1(O)CC[C@H]2[C@@H]3CCc4cc(O)ccc4[C@H]3CC[C@@]21C [ETHINYL ESTRADIOL]", "LABEL": "Not fulfilled"}
{"MOLECULE": "Oc1ncnc2[nH]ncc12 [ALLOPURINOL]", "LABEL": "Fulfilled"}
{"MOLECULE": "CCC(C)(C)C(=O)O[C@H]1C[C@@H](C)C=C2C=C[C@H](C)[C@H](CC[C@@H]3C[C@@H](O)CC(=O)O3)[C@H]21 [SIMVASTATIN]", "LABEL": "Fulfilled"}
{"MOLECULE": "CC(C)C(=O)Nc1ccc([N+](=O)[O-])c(C(F)(F)F)c1 [FLUTAMIDE]", "LABEL": "Not fulfilled"}
{"MOLECULE": "O=C(N[C@H](CO)[C@H](O)c1ccc([N+](=O)[O-])cc1)C(Cl)Cl [CHLORAMPHENICOL]", "LABEL": "Not fulfilled"}
{"MOLECULE": "CC(C)(S)[C@@H](N)C(=O)O [PENICILLAMINE]", "LABEL": "Not fulfilled"}
{"MOLECULE": "CCSCC[C@H](N)C(=O)O [ETHIONINE]", "LABEL": "Not fulfilled"}
{"MOLECULE": "CC(=N)S [THIOACETAMIDE]", "LABEL": "Not fulfilled"}
{"MOLECULE": "C[C@](N)(Cc1ccc(O)c(O)c1)C(=O)O [METHYLDOPA]", "LABEL": "Fulfilled"}

Consider the molecule CC(=O)Oc1cc(C(C)C)c(OCCN(C)C)cc1C [MOXISYLYTE] . Is its DBIL strictly less than 0.01 mg/dL?
Fulfilled

Consider the molecule C[C@]12CCC(=O)C=C1CC[C@@H]1[C@@H]2CC[C@@]2(C)[C@H]1CC[C@]2(C)O [METHYLTESTOSTERONE] . Is its DBIL strictly less than 0.01 mg/dL?
Not fulfilled

Consider the molecule O=C(O)c1cccnc1 [NIACIN] . Is its DBIL strictly less than 0.01 mg/dL?
Fulfilled

Consider the molecule CCN1CCCC1CNC(=O)c1cc(S(N)(=O)=O)ccc1OC (stereo unspecified) [SULPIRIDE] . Is its DBIL strictly less than 0.01 mg/dL?
Not fulfilled

Consider the molecule CCc1oc2ccccc2c1C(=O)c1cc(I)c(O)c(I)c1 [BENZIODARONE] . Is its DBIL strictly less than 0.01 mg/dL?
Not fulfilled
